- System: Dog Coronary Artery
- Experimental details: Dog coronary artery test: relaxation of KCl-contracted coronary artery rings
- Assay type: cell-based
- Condition details: coronary artery rings contracted with 50 mM KCl, 37° C.; IC50 = 50% relaxation; mean values, probit analysis

- Compound: "CCOC(=O)C1=C(C)NC(C)=C(C(=O)OCC)C1c1csc2ccncc12 [Example 5]"
  -log IC50: 7.55
- Compound: "CCOC(=O)C1=C(C)NC(C)=C(C(=O)OCCOC)C1c1csc2cccnc12 (centres unmarked)"
  -log IC50: 7.0
- Compound: "CCC(C)OC(=O)C1=C(C)NC(C)=C(C(=O)OC)[C@@H]1c1csc2ccccc12 (some centres unmarked)"
  -log IC50: 5.7
- Compound: "CCOC(=O)C1=C(C)NC(C)=C(C(=O)OCC)C1c1nccc2ccsc12"
  -log IC50: 7.1
- Compound: "CCOC(=O)C1=C(C)NC(C)=C(C(=O)OCC)C1c1csc2ccncc12 [Example 52]"
  -log IC50: 6.94

Data credit: patent US4659717A
